# target under test: BIKE (amino acids S38-E345) (K320A, K321A) (Homo sapiens, UniProt Q9NSY1, K320A/K321A)
# Construct: against BIKE (amino acids S38-E345) (K320A, K321A); 6His (N, cleaved yes)
# Sequence (Q9NSY1 38-345 K320A/K321A): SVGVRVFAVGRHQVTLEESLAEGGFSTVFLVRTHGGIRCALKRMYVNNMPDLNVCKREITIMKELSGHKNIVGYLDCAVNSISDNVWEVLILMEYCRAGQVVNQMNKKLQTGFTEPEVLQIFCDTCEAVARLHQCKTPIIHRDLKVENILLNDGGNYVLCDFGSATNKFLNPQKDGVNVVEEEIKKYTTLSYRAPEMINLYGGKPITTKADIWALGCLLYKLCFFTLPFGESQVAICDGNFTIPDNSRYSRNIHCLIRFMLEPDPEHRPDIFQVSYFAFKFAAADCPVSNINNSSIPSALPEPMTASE
# method: BIKE pSENs assay
# Type: biochemical
# conditions: class symbols; read-out: BIKE pSENs: IC50
pIC50: −log10 of the molar value.
measurement type: pIC50

Use the examples below as a reference point.
INSERT INTO assay_data (compound, measurement_type, result) VALUES
  ('CC(C)(C)OC(=O)NCCNc1nc2c(-c3cccnc3OC3CC3)cnn2cc1F', 'pIC50', '5.82 to 6.30'),
  ('COCCN1C[C@@H](OC(=O)N2CCN(c3ccn4ncc(-c5cc(F)cnc5OC5CC5)c4n3)CC2)CC1=O', 'pIC50', '6.30 to 6.82'),
  ('CC1(OC(=O)N2CCN(c3ccn4ncc(-c5cccnc5OC5CC5)c4n3)CC2)CCNC1 (stereo not drawn)', 'pIC50', '6.82 to 7.29'),
  ('CN(CCNc1ccn2ncc(-c3cccnc3OC3CC3)c2n1)C(=O)O[C@]1(C)CCNC1', 'pIC50', '6.82 to 7.29'),
  ('COc1cnc(OC2CC2)c(-c2cnn3ccc(N4CCN(C(=O)O[C@H]5CC(=O)N(C)C5)CC4)nc23)c1', 'pIC50', '6.82 to 7.29'),
  ('COC(=O)N1CC(Oc2ncccc2-c2cnn3ccc(NCCN(C)C(=O)OC(C)(C)C)nc23)C1', 'pIC50', '6.82 to 7.29');

Parameter requested: pIC50. Apply to each item below.
1. CN(CCNc1ccn2ncc(-c3cccnc3OC3CC3)c2n1)C(=O)OC(C)(C)C
2. CC(C)(C)OC(=O)N1CCN(c2ccn3ncc(-c4cccnc4O)c3n2)CC1

[reply]
["6.82 to 7.29", "6.82 to 7.29"]

Parameter requested: pIC50. Apply to each item below.
1. [2H]C([2H])([2H])N1C[C@@H](OC(=O)N2CCN(c3nc4c(-c5cc(F)cnc5OC5CC5)cnn4cc3F)CC2)CC1=O
2. COCCN1C[C@@H](OC(=O)N2CCN(c3ccn4ncc(-c5cccnc5OC5CC5)c4n3)CC2)CC1=O
3. CN1C[C@@H](OC(=O)N2CCN(c3ccn4ncc(Cl)c4n3)CC2)CC1=O
4. CC(C)Oc1ncccc1-c1cnn2ccc(N3CCN(C(=O)OC4(C)CCNC4)CC3)nc12 (stereo not drawn)
5. CC(=O)N1CC(Oc2ncccc2-c2cnn3ccc(NCCN(C)C(=O)OC(C)(C)C)nc23)C1
6. CC(C)(C)OC(=O)N1CCC(N2C[C@H](OC(=O)N3CCN(c4ccn5ncc(-c6cccnc6OC6CC6)c5n4)CC3)CC2=O)CC1
7. C[C@@]1(OC(=O)N2CCN(c3ccn4ncc(-c5cccnc5OC5CC5)c4n3)CC2)CCN(CC(N)=O)C1

[reply]
6.82 to 7.29
5.82 to 6.30
< 5.82
6.30 to 6.82
6.82 to 7.29
6.30 to 6.82
5.82 to 6.30

Parameter requested: pIC50. Apply to each item below.
1. CC(C)Oc1ncccc1-c1cnn2ccc(N3CCN(C(=O)OC4(C)COC4)CC3)nc12
2. CN1CC[C@@](C)(OC(=O)N2CCN(c3ccn4ncc(-c5cccnc5OC5CC5)c4n3)CC2)C1
3. CC(C)Oc1ncccc1-c1cnn2ccc(N3CCN(C(=O)O[C@@H]4CNC(=O)C4)CC3)nc12
4. COc1ncccc1-c1cnn2ccc(N3CCN(C(=O)OC4CNC(=O)C4)CC3)nc12 (stereo not drawn)
5. COc1ncccc1-c1cnn2ccc(N3CCN(C(=O)O[C@H]4CO[C@H]5OCC[C@H]54)CC3)nc12
6. CN(CCNc1ccn2ncc(-c3cccnc3OC3CC3)c2n1)C(=O)O[C@@H]1CNC(=O)C1
7. [2H]C([2H])([2H])N1C[C@@H](OC(=O)N2CCN(c3nc4c(-c5cccnc5OC5CC5)cnn4cc3F)CC2)CC1=O
8. CN1C[C@@H](OC(=O)N2CCN(c3ccn4ncc(-c5cc(OC(F)(F)F)cnc5OC5CC5)c4n3)CC2)CC1=O

[reply]
1. 5.82 to 6.30
2. 5.82 to 6.30
3. 5.82 to 6.30
4. 7.30 to 9.00
5. 6.30 to 6.82
6. 5.82 to 6.30
7. 6.82 to 7.29
8. 6.30 to 6.82

###

# target under test: BIKE (amino acids S38-E345) (K320A, K321A) (Homo sapiens, UniProt Q9NSY1, K320A/K321A)
# Construct: against BIKE (amino acids S38-E345) (K320A, K321A); 6His (N, cleaved yes)
# method: BIKE pSENs assay
# Format: biochemical
I'd appreciate it if you could supply IC50 values for the items below.

Use the examples below as a reference point.
INSERT INTO results (compound, measurement_type, result) VALUES
  ('Brc1cnn2ccc(N3CCNCC3)nc12 [Compound I-103]', 'IC50', '> 1500 nM'),
  ('[2H]C1([2H])N(C(=O)O[C@@H]2CNC(=O)C2)C([2H])([2H])C([2H])([2H])N(c2ccn3ncc(-c4cccnc4OC4CC4)c3n2)C1([2H])[2H] [Compound I-72]', 'IC50', '151 to 500 nM'),
  ('COc1ncccc1-c1cnn2ccc(N3CCN(C(=O)OC(C)C)CC3)nc12 [LP-935509]', 'IC50', '33.3 nM'),
  ('c1cc2nc(N3CCNCC3)ccn2n1 [Compound I-105]', 'IC50', '> 1500 nM'),
  ('[2H]C([2H])([2H])N1C[C@@H](OC(=O)N2CCN(c3ccn4ncc(-c5cccnc5OC5CC5)c4n3)CC2)CC1=O [Compound I-113]', 'IC50', '501 to 1500 nM'),
  ('CN1C[C@@H](OC(=O)N2CCN(c3ccn4ncc(-c5cccnc5OC5CC5)c4n3)CC2)CC1=O [Compound I-34]', 'IC50', '151 to 500 nM');

Parameter requested: IC50. Apply to each item below.
1. CN1C[C@H](OC(=O)N2CCN(c3ccn4ncc(-c5cccnc5OC5CC5)c4n3)CC2)CC1=O [Compound I-94]
2. [2H]C1([2H])N(C(=O)O[C@H]2CC(=O)N(C)C2)C([2H])([2H])C([2H])([2H])N(c2ccn3ncc(-c4cccnc4OC4CC4)c3n2)C1([2H])[2H] [Compound I-73]

[reply]
["151 to 500 nM", "501 to 1500 nM"]

###

I'd appreciate it if you could supply IC50 values for the items below.
# target under test: AAK1 (Homo sapiens, UniProt Q2M2I8)
# method: pAP2M1 cell-based assay (in-cell Western)
# conditions: Hela cells co-transfected with AP2M1 and AAK1, 3 hr treatment; class symbols; read-out: AAK1 In-cell Western: IC50

Use the examples below as a reference point.
INSERT INTO results (line_notation, result) VALUES
  ('COC(=O)[C@@H]1CN(c2ccn3ncc(-c4cccnc4OC4CC4)c3n2)CCN1C(=O)O[C@@H]1CNC(=O)C1', '> 1500 nM'),
  ('CNCCN1C[C@@H](OC(=O)N2CCN(c3ccn4ncc(-c5cccnc5OC5CC5)c4n3)CC2)CC1=O', '501 to 1500 nM'),
  ('O=C(O[C@H]1CO[C@H]2OCC[C@H]21)N1CCN(c2ccn3ncc(-c4cnccn4)c3n2)CC1', '501 to 1500 nM'),
  ('CN1C[C@@H](OC(=O)N2CCN(c3nc4c(-c5cccnc5OC5CCOCC5)cnn4cc3F)CC2)CC1=O', '501 to 1500 nM'),
  ('CN1C[C@@H](OC(=O)N2CCN(c3nc4c(-c5cccnc5OC5CC5)cnn4cc3O)CC2)CC1=O', '> 1500 nM');

Parameter requested: IC50. Apply to each item below.
1. CN1C[C@@H](OC(=O)N2CCN(c3ccn4ncc(-c5cccnc5O)c4n3)CC2)CC1=O
2. O=C(O[C@H]1CO[C@H]2OCC[C@H]21)N1CCN(c2ccn3ncc(-c4ccccc4OC4CC4)c3n2)CC1
3. O=C1C[C@H](OC(=O)N2CCN(c3ccn4ncc(-c5cccnc5OC5CC5)c4n3)CC2)CN1CCOCc1ccccc1
4. CC1(OC(=O)N2CCN(c3ccn4ncc(-c5cccnc5OC5CCC5)c4n3)CC2)COC1
5. CC(=O)N1CC(Oc2ncccc2-c2cnn3ccc(N4CCN(C(=O)O[C@@H]5CNC(=O)C5)CC4)nc23)C1
6. C#C[C@@]1(OC(=O)N2CCN(c3ccn4ncc(-c5cccnc5OC5CC5)c4n3)CC2)CCNC1

[reply]
1. > 1500 nM
2. 501 to 1500 nM
3. 501 to 1500 nM
4. 501 to 1500 nM
5. > 1500 nM
6. 1 to 50 nM

Parameter requested: IC50. Apply to each item below.
1. COCCN1C[C@@H](OC(=O)N2CCN(c3ccn4ncc(-c5cccnc5OC5CC5)c4n3)CC2)CC1=O
2. COc1cnc(OC2CC2)c(-c2cnn3ccc(N4CCN(C(=O)O[C@H]5CC(=O)N(C)C5)CC4)nc23)c1
3. CC(=O)N1CC(Oc2ncccc2-c2cnn3ccc(NCCN(C)C(=O)OC(C)(C)C)nc23)C1

[reply]
501 to 1500 nM
151 to 500 nM
51 to 150 nM
